FYI, the data here is from ChEMBL document CHEMBL4196177.

target: Alpha-crystallin A chain (Homo sapiens, UniProt P02489, Y118D); assay: Induction of redissolving of aggregated alpha-crystallin A Y118D mutant (unknown origin) incubated for 24 hrs by ThT-fluorescence based assay
Sequence (P02489 whole entry Y118D): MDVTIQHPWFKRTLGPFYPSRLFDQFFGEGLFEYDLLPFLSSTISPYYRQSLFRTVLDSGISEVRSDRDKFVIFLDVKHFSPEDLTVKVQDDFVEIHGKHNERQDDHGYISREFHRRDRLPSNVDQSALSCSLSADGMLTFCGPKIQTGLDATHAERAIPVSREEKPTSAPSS
EXPERIMENTAL READOUT: EC50 (nM)
Use nM as the unit, but write only the number.

Asked: Can you look up the measured EC50 of `C[C@H](CCCC(C)(C)O)[C@H]1CC[C@@]2(C)C3=C(CC[C@]12C)[C@@]1(C)CC[C@H](O)C(C)(C)[C@@H]1CC3` for me?
Given back: 35.6

---

tested on: Alpha-crystallin A chain (Homo sapiens), P02489 [Y118D]; experiment: Inhibition of alpha-crystallin A Y118D mutant (unknown origin)-induced intracellular protein aggregation expressed in human HeLa cells at 0.4 uM incubated for 6 to 8 hrs by fluorescence microscopy relative to untreated control; type: cell-based
Activity calls are given as the source filed them. No cut-off for these calls is given here.
EXPERIMENTAL READOUT: inhibition

C[C@H](CCCC(C)(C)O)[C@H]1CC[C@@]2(C)C3=CC[C@H]4C(C)(C)[C@@H](O)CC[C@]4(C)C3=CC[C@]12C Active
C[C@H](CCCC(C)(C)O)[C@H]1CC[C@@]2(C)C3=C(CC[C@]12C)[C@@]1(C)CC[C@H](O)C(C)(C)[C@@H]1CC3 Active

---

Tested on: Alpha-crystallin B chain (Homo sapiens), P02511 [R120G]
Sequence (whole entry): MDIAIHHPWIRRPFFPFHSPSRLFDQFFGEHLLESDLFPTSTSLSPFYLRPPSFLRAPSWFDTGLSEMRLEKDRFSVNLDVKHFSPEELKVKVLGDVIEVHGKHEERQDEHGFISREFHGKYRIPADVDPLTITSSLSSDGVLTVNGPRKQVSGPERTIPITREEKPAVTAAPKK
Test: Inhibition of alpha-crystallin B R120G mutant (unknown origin)-induced intracellular protein aggregation expressed in human HeLa cells at 4 uM incubated for 6 to 8 hrs by fluorescence microscopy relative to untreated control
Assay type: cell-based
The source made the active and inactive calls. The rule behind the calls is not given here.
EXPERIMENTAL READOUT: inhibition

# example entries with known answers
N[C@@H](CCC(=O)N[C@@H](CS)C(=O)NCC(=O)O)C(=O)O inactive
O=C(O)COc1nn(Cc2ccccc2)c2ccccc12 inactive
C[C@H](CCCC(C)(C)O)[C@H]1CC[C@@]2(C)C3=CC[C@H]4C(C)(C)[C@@H](O)CC[C@]4(C)C3=CC[C@]12C Active
C[C@H](CCCC(C)(C)O)[C@H]1CC[C@@]2(C)C3=C(CC[C@]12C)[C@@]1(C)CC[C@H](O)C(C)(C)[C@@H]1CC3 Active
C[C@H](CCCC(C)(C)O)[C@H]1CC[C@@]2(C)C3=C(CC[C@]12C)[C@@]1(C)CCC(=O)C(C)(C)[C@@H]1CC3 Active

Asked: Can you look up the measured inhibition of `C[C@H](CCCC(C)(C)O)[C@H]1CC[C@@]2(C)C3=C(CC[C@]12C)[C@@]1(C)C[C@@H](F)[C@H](O)C(C)(C)[C@@H]1CC3` for me?
Given back: Active

Asked: Next entry: `O=C(O)c1cc(O)c2c3nc4ccccc4oc-3cc(=O)c2n1`
Given back: inactive

Asked: Next entry: `C[C@H](CCCC(C)(C)O)[C@H]1CC[C@@]2(C)[C@@]34CC[C@H]5C(C)(C)/C(=N/O)CC[C@]5(C)[C@]3(CC[C@]12C)O4`
Given back: inactive

Asked: Next entry: `O=C1O[C@H]([C@@H](O)CO)C([O-])=C1O.[Na+]`
Given back: inactive

Asked: Next entry: `C[C@H](CCCC(C)(C)O)[C@H]1CC[C@@]2(C)C3=C(CC[C@]12C)[C@@]1(C)C[C@@H](F)[C@@H](O)C(C)(C)[C@@H]1CC3`
Given back: Active
